Values were extracted from patent US10881679B2.

- Test system: Herpes zoster simplex viruses type I (HSV-I)
- ASSAY REMARKS: Impact on virus-induced cytopathic effect in Vero cells (MTT): HSV-I
- Type: cell-based
- EXPERIMENTAL SETUP: HSV-I 100TCID50, Vero, 72 h; drug g/L as Table 1-2
Marks after values point to notes of the source that are not given here.
ASSAY READOUT: antiviral effective rate (ER %)

I'm curious: which antiviral effective rate (ER %) was measured for CCOC(=O)C1=C[C@@H](OC(CC)CC)[C@H](NC(C)=O)[C@@H](N)C1 [oseltamivir phosphate] tested on Herpes zoster simplex viruses type I (HSV-I)? 66.56** %

I'm curious: which antiviral effective rate (ER %) was measured for "NC(=O)c1ncn([C@@H]2O[C@H](CO)[C@@H](O)[C@H]2O)n1" tested on Herpes zoster simplex viruses type I (HSV-I)? 62.92** %

I'm curious: which antiviral effective rate (ER %) was measured for "COc1cc([C@H]2OC[C@H]3[C@@H]2CO[C@H]3c2ccc(OC)c(OC)c2)ccc1O" tested on Herpes zoster simplex viruses type I (HSV-I)? 84.30** %

I'm curious: which antiviral effective rate (ER %) was measured for COc1ccc([C@H]2OCC3C2CO[C@H]3c2ccc(O[C@@H]3OC(CO)[C@@H](O)[C@H](O)C3O)c(OC)c2)cc1OC (stereo partly shown) tested on Herpes zoster simplex viruses type I (HSV-I)? 85.00** %
